melting point values for the compounds below.

Sample records with melting point:
- compound: "Cc1ccc(C(=O)Oc2c3c(Cl)cccc3cc3cccc(Cl)c23)cc1 [Compound 3o, 1,8-Dichloro-9-(p-toluoyloxy)anthracene]"
  readout: "melting point"
  result: "220 to 222 °C"
- compound: "O=C(CCl)Oc1c2c(Cl)cccc2cc2cccc(Cl)c12 [Compound 3c, 1,8-Dichloro-9-chloroacetoxyanthracene]"
  readout: "melting point"
  result: "178 to 180 °C"
- compound: "CCC(=O)Oc1c2c(Cl)cccc2cc2cccc(Cl)c12 [Compound 3d, 1,8-Dichloro-9-propionoxyanthracene]"
  readout: "melting point"
  result: "150 to 152 °C"
- compound: "CC(C)C(=O)Oc1c2c(Cl)cccc2cc2cccc(Cl)c12 [Compound 3e, 1,8-Dichloro-9-isobutyroxyanthracene]"
  readout: "melting point"
  result: "184 to 186 °C"
- compound: "O=C(CCCBr)Oc1c2c(Cl)cccc2cc2cccc(Cl)c12 [Compound 3I]"
  readout: "melting point"
  result: "155 to 157 °C"

Report melting point for CCCCCC(=O)Oc1c2c(Cl)cccc2cc2cccc(Cl)c12 [Compound 3k, 1,8-Dichloro-9-hexanoyloxyanthracene] please.
136 to 138 °C

Would you kindly repeat that for O=C(Oc1c2c(Cl)cccc2cc2cccc(Cl)c12)c1ccccc1 [Compound 3L, 1,8-Dichloro-9-benzoyloxyanthracene] ?
183 to 185 °C

Would you kindly repeat that for Cc1ccccc1C(=O)Oc1c2c(Cl)cccc2cc2cccc(Cl)c12 [Compound 3m, 1,8-Dichloro-9-(o-toluoyloxy)anthracene] ?
168 to 170 °C

Would you kindly repeat that for Cc1cccc(C(=O)Oc2c3c(Cl)cccc3cc3cccc(Cl)c23)c1 [Compound 3n, 1,8-Dichloro-9-(m-toluoyloxy)anthracene] ?
196 to 198 °C

Would you kindly repeat that for CC(=O)Oc1c2c(Cl)cccc2cc2cccc(Cl)c12 [Compound 3a, 1,8-Dichloro-9-acetoxyanthracene] ?
130 to 131 °C

Would you kindly repeat that for O=C(CBr)Oc1c2c(Cl)cccc2cc2cccc(Cl)c12 [Compound 3b, 1,8-Dichloro-9-bromoacetoxyanthracene] ?
192 to 193 °C

Would you kindly repeat that for CCCC(=O)Oc1c2c(Cl)cccc2cc2cccc(Cl)c12 [Compound 3h, 1,8-Dichloro-9-butyroxyanthracene] ?
152 to 154 °C
